Test system: seeds of barley
Experiment: Germination rate of barley seeds
Type: in vivo
Settings: barley seeds with lowered germination rate; 100 seeds, test solution at a given concentration, light, 25° C., after one week
Measured Germination rate (%) by item

# Record smiles, Germination rate (%)
rows = [
    ("COc1ccc(C=CCN(C)Cc2ccc(F)cc2)cc1OC", "15%"),
    ("COc1ccc(C=CCNCc2ccc(F)cc2)cc1OC", "29%"),
    ("Oc1ccc(CCNCc2ccccc2O)cc1", "35%"),
]

Notebook entry, seeds of barley assay: Germination rate (%) of COc1ccc(CNCCc2ccc(O)cc2)cc1OC = ?
8%

Which Germination rate (%) is reported with seeds of barley for this entry: COC(=O)CN(CC=Cc1ccc(OC)c(OC)c1)Cc1ccc(F)cc1 ?
18%
